tested on: NCI-H23 complex spheroids with HUVEC/MSC, viability; experiment: Anticancer human tumor NCI-H23 cell line growth inhibition [RAS]; settings: second compound 0.01 µM; first compound 0.00316 µM; stronger effect = lower value;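 note: spheroids exposed to compound for 7 days; 100% = DMSO vehicle control viability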
experimental-readout: viability, T/C

• O=C(c1ccc(F)c(F)c1Nc1ccc(I)cc1F)N1CC(O)([C@@H]2CCCCN2)C1 + C=CC(=O)N1CCN(c2nc(OCC3CCCN3C)nc3c(F)c(-c4nc(N)cc(C)c4C(F)(F)F)c(Cl)cc23)C(C)C1 = 50.9%
• Nc1ccn(C2OC(CO)C(O)C2(F)F)c(=O)n1 (stereo not given) + C=CC(=O)N1CCN(c2nc(OCC3CCCN3C)nc3c(F)c(-c4nc(N)cc(C)c4C(F)(F)F)c(Cl)cc23)C(C)C1 = 34.3%
• C=CC(=O)Nc1cc(Nc2nccc(-c3cn(C)c4ccccc34)n2)c(OC)cc1N(C)CCN(C)C + C=CC(=O)N1CCN(c2nc(OCC3CCCN3C)nc3c(F)c(-c4nc(N)cc(C)c4C(F)(F)F)c(Cl)cc23)C(C)C1 = 51.5%
• CC(C)n1nc(-c2ccc3oc(N)nc3c2)c2c(N)ncnc21 + C=CC(=O)N1CCN(c2nc(OCC3CCCN3C)nc3c(F)c(-c4nc(N)cc(C)c4C(F)(F)F)c(Cl)cc23)C(C)C1 = 35.5%
• CCN1CCN(Cc2ccc(Nc3ncc(F)c(-c4cc(F)c5nc(C)n(C(C)C)c5c4)n3)nc2)CC1 + C=CC(=O)N1CCN(c2nc(OCC3CCCN3C)nc3c(F)c(-c4nc(N)cc(C)c4C(F)(F)F)c(Cl)cc23)C(C)C1 = 49.9%

Data origin, for the record: PubChem BioAssay AID2060885
